Sourced from BindingDB's records for doi:10.1016/j.bmc.2010.05.071

molecular target: Acetylcholinesterase (Electrophorus electricus)
Sequence (O42275 whole entry): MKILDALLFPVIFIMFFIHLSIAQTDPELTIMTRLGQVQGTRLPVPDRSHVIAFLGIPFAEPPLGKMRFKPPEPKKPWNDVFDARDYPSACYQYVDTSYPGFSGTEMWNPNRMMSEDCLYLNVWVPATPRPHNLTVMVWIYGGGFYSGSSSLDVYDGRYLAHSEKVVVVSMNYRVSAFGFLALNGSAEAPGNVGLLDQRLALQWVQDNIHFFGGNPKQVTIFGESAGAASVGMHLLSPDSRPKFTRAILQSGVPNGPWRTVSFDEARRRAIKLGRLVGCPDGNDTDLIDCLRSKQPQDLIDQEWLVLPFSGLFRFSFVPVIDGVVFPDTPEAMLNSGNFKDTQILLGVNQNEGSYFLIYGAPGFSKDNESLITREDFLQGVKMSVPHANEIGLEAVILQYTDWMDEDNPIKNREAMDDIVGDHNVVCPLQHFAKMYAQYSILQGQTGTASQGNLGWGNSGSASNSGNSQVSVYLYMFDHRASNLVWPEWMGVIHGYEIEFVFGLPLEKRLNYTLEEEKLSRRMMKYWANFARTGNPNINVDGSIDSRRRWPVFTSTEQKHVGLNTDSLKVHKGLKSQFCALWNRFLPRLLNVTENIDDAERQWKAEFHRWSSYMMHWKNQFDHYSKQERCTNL
metric name: pIC50
Give only the number. pIC50 is defined as minus log10 of concentration in molar units.

Looking up O=CN1CC[C@]23CC(=O)CC[C@H]2[C@H]1Cc1c(O)ccc(O)c13 , I found its pIC50 recorded as 4.90
